Field: TGI. Provide a value for each of the compounds that follow.
Test system: LXFL 529 NSCLC
Test: NCI tumour cell line growth inhibition, 48 h
// return numeric value only (unit: µM, not printed)

In: Need TGI of O=C(O)C(C(=O)C(=O)C(C(=O)O)c1ccc(Cl)cc1)c1ccc(Cl)cc1 (centres undefined) , thanks.
Out: 10.7

In: Can you check COc1cc(C=O)c(-c2cc3c(cc2C2(C)OCCS2)OCO3)c(OC)c1OC (centres undefined) next?
Out: 54

In: Can you check `CC(=O)OC(C)(C)/C=C/C(=O)[C@](C)(O)[C@H]1[C@H](O)C[C@@]2(C)[C@@H]3CC=C4[C@@H](C[C@H](O)C(=O)C4(C)C)[C@]3(CO)C(=O)C[C@]12C` next?
Out: 6.62

In: Can you check CC(=O)OC1CC[C@@]2(C)C(CC[C@]3(C)C2CC=C2[C@@H]4CC(C)(C)CCC4(C)CCC23C)[C@@]1(C)C(=O)O (some centres undefined) next?
Out: 32.9

In: Can you check CCCCCCCC(=O)OCC(C[As](=O)(O)O)OC(=O)CCCCCCC (centres undefined) next?
Out: 26.3

In: Can you check COC(=O)[C@@]12OC[C@]34C([C@@H](O)C1O)[C@@]1(C)CC(=O)C(O)=C(C)C1C[C@H]3OC(=O)[C@H](OC(=O)/C=C(/c1ccccc1)C(F)(F)F)[C@H]42 (some centres undefined) next?
Out: 15.3

Source of measurements: PubChem BioAssay (NCI)
